This section presents IC50 values reported for PIK3CA (human) in the literature.

| compound | result-value |
| --- | --- |
| Nc1nc2cc(-c3ccc4ncc(C(=O)NC5CC5)n4c3)ccc2o1 | < 100 nM |

Query string: Answer with reported IC50 of `C[C@H](Nc1ccnc2ccnn12)c1cc2cccc(Cl)c2c(=O)n1-c1ccccc1`
Result string: 1000 to 10000 nM

Query string: Answer with reported IC50 of `Cn1cc(/C=C2\Oc3cc(O)cc(O)c3C2=O)c2c(-c3ccc(C(=O)N4CCCC4)cc3)ccnc21`
Result string: 9 nM

Query string: Answer with reported IC50 of `Cc1cc(-c2ccc3ncc4ncn(-c5ccc(C(C)(C)C#N)nc5)c4c3n2)cnc1N`
Result string: < 100 nM

Query string: Answer with reported IC50 of CNC(=O)[C@@H]1CCC[C@H]1Cn1cnc2ccc(-c3cnc(OC)c(NS(=O)(=O)c4ccc(F)cc4Cl)c3)cc2c1=O (single isomer, unassigned)
Result string: 41 nM

Query string: Answer with reported IC50 of `COc1ccc(Nc2nc(-c3ccc(O)cc3)nc3c2cnn3C2CCN(Cc3ccccc3)CC2)cc1OC`
Result string: > 5940 nM

Query string: Answer with reported IC50 of `Cc1nccn1C1CCN(c2cnc3ccc(-c4ccc5oc(N)nc5c4)cc3n2)CC1`
Result string: < 100 nM

Query string: Answer with reported IC50 of CC(O)C(=O)N1[C@H](C)CN(c2nc3c(N4CCOCC4)nc(-c4cnc(N)nc4)nc3n2CC(F)(F)F)C[C@@H]1C (stereo partly shown)
Result string: 10 to 20 nM

Query string: Answer with reported IC50 of CNC(=O)C(C)Cn1cnc2ccc(-c3cnc(OC)c(NS(=O)(=O)c4ccc(C)c(Cl)c4)c3)cc2c1=O (single isomer, unassigned)
Result string: 8.92 nM

====

This section presents IC50 values reported for PIK3CA (human) (UniProt P42336) in the literature.

Past entries and their recorded results:
| compound | result-value |
| --- | --- |
| C[C@H](Nc1ncnc2scnc12)c1cc2cccc(-c3ccnnc3)c2c(=O)n1-c1ccccc1 | 1 to 10 µM |
| COc1ncc(-c2ccc3nccc(-c4ccc(CN5CCN(C(C)C)CC5)cc4)c3c2)cc1NS(=O)(=O)c1ccc(F)cc1F | 0.0017 µM |
| C[C@H]1COCCN1c1cnc2ccc(-c3ccc4oc(N)nc4c3)nc2n1 | < 0.1 µM |

Query string: Answer with reported IC50 of `CC(C)(C)CNc1ccc(CNc2cccc(Oc3cc(=O)[nH]c4ccccc34)c2)cn1`
Result string: 2.09 µM

Query string: Answer with reported IC50 of `Nc1nc2ccc(-c3ccc4nc(N)oc4c3)cc2o1`
Result string: > 10 µM

Query string: Answer with reported IC50 of `C[C@H](Nc1nc(N)nc2cccnc12)c1cc2cccc(C(F)(F)F)c2c(=O)n1-c1ccccc1`
Result string: 1 to 10 µM

Query string: Answer with reported IC50 of `C[C@H](Nc1ccnn2ccnc12)c1cc2cccc(-c3cnn(C)c3)c2c(=O)n1-c1ccccc1`
Result string: 1 to 10 µM

Query string: Answer with reported IC50 of `COc1ncc(-c2ccc3ncc4nnc(CN(C)C)n4c3c2)cc1NS(=O)(=O)c1ccc(F)cc1F`
Result string: < 0.1 µM

Query string: Answer with reported IC50 of COc1ncc(-c2ccc3ncn(CC(C)C(N)=O)c(=O)c3c2)cc1NS(=O)(=O)c1sc(C)nc1C (single isomer, unassigned)
Result string: 0.00029 µM

Query string: Answer with reported IC50 of `CC(C)(O)c1cccc(-c2cnc3c(N4CCOCC4)nc(-c4cnc(N)nc4)nc3c2)c1`
Result string: < 0.05 µM

Query string: Answer with reported IC50 of `Nc1ncc(-c2nc(N3CCOCC3)c3ccc(-c4cccnc4F)cc3n2)cn1`
Result string: > 1 µM

Query string: Answer with reported IC50 of `COc1ncc(-c2ccc3ncc(C(=O)N4CCOCC4)n3c2)cc1NS(=O)(=O)c1cccc(F)c1`
Result string: < 0.1 µM

Query string: Answer with reported IC50 of `COC(=O)Nc1nc2ncc(-c3ccc4c(c3)CN(C(=O)N3CCC(C)CC3)CCO4)cc2[nH]1`
Result string: ≤ 0.075 µM

Query string: Answer with reported IC50 of `COc1cc(CO)cc(-c2nc3c(N4CCOC[C@@H]4C)nc(N4CCOC[C@@H]4C)nc3[nH]2)c1`
Result string: 0.4 µM

Query string: Answer with reported IC50 of `C[C@H](NC(=O)c1c(N)nn2cccnc12)c1cc2sccc2c(=O)n1-c1ccccc1`
Result string: > 10 µM

Query string: Answer with reported IC50 of `CN1CCN(C(=O)c2cnc3ccc(-c4ccc5sc(N)nc5c4)cn23)CC1`
Result string: < 1 µM

Query string: Answer with reported IC50 of `CC(=O)Nc1n[nH]c2ccc(-c3ccc4oc(N)nc4c3)cc12`
Result string: > 10 µM

====

This section presents IC50 values reported for PIK3CA (human) (UniProt P42336) in the literature.

| molecule | IC50 |
| --- | --- |
| CNC(=O)C(C)Cn1cnc2ccc(-c3cnc(OC)c(NS(=O)(=O)c4ccc(F)cc4C(F)(F)F)c3)cc2c1=O (single isomer, unassigned) | 5.58 nM |
| C=CS(=O)(=O)Nc1cccc(-c2csc3c(=O)cc(N4CCOCC4)oc23)c1 | < 1000 nM |

Query string: Answer with reported IC50 of `C[C@H](O)C(=O)Nc1cccc(-c2ccc3c(N4CCOCC4)nc(-c4cnc(N)nc4)nc3c2)c1`
Result string: 50 to 200 nM

Query string: Answer with reported IC50 of `Cc1cccc2cc([C@H](C)Nc3ncnc4[nH]cc(Br)c34)n(-c3ccccc3)c(=O)c12`
Result string: < 1000 nM

====

pIC50: −log10 of the molar value.
This section presents pIC50 values reported for UniProtKB P42336 in the literature.

Past entries and their recorded results:
| compound | pIC50 |
| --- | --- |
| CN(C)CCN(C)C(=O)c1ccc(NC(=O)Nc2ccc(Nc3nc(Nc4ccc(C(N)=O)cc4)c4cnn(C)c4n3)cc2)cc1 | > 9.52 |
| CC(C)(C)c1ncc2c(n1)-c1sc(NC(=O)N3CC[C@H]3C(N)=O)nc1CC2 | 8.26 |
| CN1CC2CC1CN2C(=O)C1CCN(c2ccnc3c2c(/C=C2\Oc4ccc(NC(=O)Nc5cccnc5)cc4C2=O)cn3C)CC1 (centres unmarked) | < 5.00 |
| Nc1cc(-c2ccc3ncc(C(=O)N4CCOCC4)n3c2)cnc1Cl | > 5.00 |
| CN1CCC(Nc2ccc(-c3cccc(Oc4cc(=O)[nH]c5ccccc45)c3)cc2)CC1 | 5.10 |
| C=CCOc1nc(-c2ccc(NC(=O)CCl)cn2)nc(C)c1CC | > 6.00 |
| Cc1ccc(C(=O)Nc2cccc(-c3cnc4c(N5CCOCC5)nc(-c5cnc(N)nc5)nc4c3)c2)o1 | > 7.30 |

Query string: Provide pIC50, tested on UniProtKB P42336, for Cc1nc2ccc(-c3ccc4c(c3)CN(C(=O)N3CCN(C)CC3c3ccccc3)CCO4)cc2[nH]1 (centres unmarked) .
Result string: 5.52 to 6.00

====

This section presents pIC50 values reported for PIK3CA (human) (UniProt P42336) in the literature.
pIC50: −log10 of the molar value.

Past entries and their recorded results:
| compound | pIC50 |
| --- | --- |
| Nc1nc2ccc(-c3ccc4c(c3)CN(C(=O)N3CCC(=O)CC3c3ccc(F)c(F)c3)CCO4)cc2[nH]1 (stereo not drawn) | 6.70 to 7.12 |
| COC(=O)Nc1nc2ccc(-c3ccc4c(c3)CN(C(=O)N3CCC(C#N)CC3)CCO4)cc2[nH]1 | 6.70 to 7.12 |
| Cn1ncc2c(-c3ccc4cc[nH]c4c3)nc(N3CCOCC3)nc21 | < 5.00 |
| Cc1csc2nc(Cn3nc(Cl)c4c(N)ncnc43)n(-c3ccccc3C(F)(F)F)c(=O)c12 | < 5.00 |
| Cc1nc2ccc(-c3ccc4c(c3)CN(C(=O)N3CCCC(C)C3)CCO4)cc2[nH]1 (stereo not drawn) | 6.30 to 6.70 |

Query string: Answer with reported pIC50 of `CS(=O)(=O)N1CCN(c2nc3c(N4CCOCC4)nc(-c4cnc(N)nc4)nc3n2CC2CC2)CC1`
Result string: > 8.00

Query string: Answer with reported pIC50 of `FC[C@@H]1CCCN1[C@H]1CC[C@@H](COc2cc(-n3c(C(F)F)nc4ccccc43)nc(N3CCOCC3)n2)CC1`
Result string: 5.06

Query string: Answer with reported pIC50 of `Cc1ccccc1-n1c(Cn2nc(-c3ccc(F)c(O)c3)c3c(N)ncnc32)cc2cccc(F)c2c1=O`
Result string: < 5.00

Query string: Answer with reported pIC50 of `CC(C)(C)C(=O)Nc1ncccc1CNc1cccc(Oc2cc(=O)[nH]c3ccccc23)c1`
Result string: 5.39

Query string: Answer with reported pIC50 of `CC(C)Cn1c(N2CCN(S(C)(=O)=O)[C@@H](C)C2)nc2c(N3CCOCC3)nc(-c3cnc(N)nc3)nc21`
Result string: 7.70 to 8.00
